Data credit: paper PMC3456874

Known Ki of a selection of compounds
molecular target: UniProtKB P0DMS8; experiment: High-content fluorescent ligand (CA200645) competition binding assay in live CHO CRE-SPAP cells expressing the A3AR; conditions: pKi at the adenosine A3 receptor (Table S2), mean ± s.e.m from 3 separate experiments

# compound, Ki
rows = [
    ("Nc1ccc(C(F)(F)F)cc1N", "2.95 µM"),
    ("COC(=O)C1Cc2ccccc2N1 (centres unmarked)", "0.794 µM"),
    ("Cc1cc2cc(N)ccc2[nH]1", "1.2 µM"),
    ("Nc1ccc2[nH]ncc2c1", "3.16 µM"),
    ("Cc1cc(N)c(N)cc1Cl", "1 µM"),
]

---

target: human A1AR (Homo sapiens, UniProt P30542)
Sequence (P30542 whole entry): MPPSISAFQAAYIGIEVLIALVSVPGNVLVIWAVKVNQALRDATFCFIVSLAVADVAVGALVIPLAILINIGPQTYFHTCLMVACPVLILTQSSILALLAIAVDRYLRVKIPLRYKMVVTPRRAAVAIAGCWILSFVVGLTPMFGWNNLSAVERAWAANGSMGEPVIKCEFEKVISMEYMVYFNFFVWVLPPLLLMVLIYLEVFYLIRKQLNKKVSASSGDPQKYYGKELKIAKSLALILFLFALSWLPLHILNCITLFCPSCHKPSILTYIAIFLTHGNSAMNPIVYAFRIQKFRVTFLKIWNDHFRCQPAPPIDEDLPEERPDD
pKi: −log10 of the molar value.

# smiles_repr, pKi
records = [
    ("CCCn1c(=O)[nH]c2nc(-c3ccc(S(=O)(=O)N4CCN(c5ccc(Cl)cc5)CC4)cc3)[nH]c2c1=O", 7.38),
]

---

target: human A3AR (Homo sapiens); assay: High-content fluorescent ligand (CA200645) competition binding assay in live CHO CRE-SPAP cells expressing the A3AR; conditions: read-out: % of CA200645 binding (% DMSO control)
Output 1 for records whose remaining binding at 1000 µM is lower than 30%, -1 for records at or above 30%.

# compound, assayed_target, qualitative_label
records = [
    ("COC(=O)C1Cc2ccccc2N1 (stereo not drawn) [MO 00997]", "human A3AR (Homo sapiens)", -1),
    ("Nc1ccc(C(F)(F)F)cc1N [BTB 07340]", "human A3AR (Homo sapiens)", 1),
    ("Nc1ccccc1-c1nc2ccccc2[nH]1 [DP 01095]", "human A3AR (Homo sapiens)", -1),
    ("Cc1cc2cc(N)ccc2[nH]1 [AC 34875]", "human A3AR (Homo sapiens)", 1),
    ("Nc1ccc2[nH]ncc2c1 [AC 30454]", "human A3AR (Homo sapiens)", 1),
    ("Cc1cc(N)c(N)cc1Cl [TL 00770]", "human A3AR (Homo sapiens)", 1),
]

---

Known Ki of a selection of molecules
biological target: human A3AR (Homo sapiens); assay: High-content fluorescent ligand (CA200645) competition binding assay in live CHO CRE-SPAP cells expressing the A3AR; conditions: A3 pKi (Table S3), mean ± s.e.m

# molecule, assayed_target, Ki / nM
records = [
    ("O=C(Nc1ccccc1-c1nc2ccccc2[nH]1)c1cccnc1 [Compound 10]", "human A3AR (Homo sapiens)", 97.7),
    ("O=C(Nc1ccccc1-c1nc2ccccc2[nH]1)c1cccs1 [Compound 12]", "human A3AR (Homo sapiens)", 257),
    ("O=C(Nc1ccccc1-c1nc2ccccc2[nH]1)c1ccco1 [Compound 11]", "human A3AR (Homo sapiens)", 166),
]

---

Known Ki of a selection of compounds
target: human A3AR (Homo sapiens, UniProt P0DMS8); test: cell-based
Sequence (P0DMS8 whole entry): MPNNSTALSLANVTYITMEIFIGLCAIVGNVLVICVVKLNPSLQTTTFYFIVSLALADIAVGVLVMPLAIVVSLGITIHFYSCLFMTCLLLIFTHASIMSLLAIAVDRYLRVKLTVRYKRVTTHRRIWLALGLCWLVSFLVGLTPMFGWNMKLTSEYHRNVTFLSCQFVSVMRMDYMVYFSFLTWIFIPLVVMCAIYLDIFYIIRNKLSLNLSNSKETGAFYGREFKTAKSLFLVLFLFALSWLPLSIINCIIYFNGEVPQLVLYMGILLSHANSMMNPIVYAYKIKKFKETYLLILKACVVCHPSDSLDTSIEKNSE
value_kind: Ki (µM)

# compound, relation_operator, reported_value
measured = [
    ("Nc1nc2c(cnn2CCc2ccccc2)c2nc(-c3ccco3)nn12 [SCH 58261, reference compound]", "=", 0.186),
    ("COc1ccc(-n2nc3c(NC(=O)c4ccccc4)nc4ccccc4n3c2=O)cc1", "=", 0.00309),
    ("COc1ccc(NC(C)=O)cc1", "=", 20.4),
    ("Nc1nc2ccc(Cl)cc2c2nc(-c3ccco3)nn12 [CGS 15943, reference compound]", "=", 0.00661),
    ("Nc1nc(NCCc2ccc(O)cc2)nc2nc(-c3ccco3)nn12 [ZM 241385, reference compound]", "=", 0.182),
    ("O=C(Nc1cnc2ccccc2c1)c1ccccc1", ">", 100),
    ("COc1ccc(-n2ccnc2)cc1", "=", 525),
    ("COc1ccc(-n2nc3c(=O)[nH]c4ccccc4n3c2=O)cc1", "=", 0.0776),
    ("COc1ccc(NN=c2[nH]c3ccccc3[nH]c2=O)cc1", "=", 2.63),
    ("Nc1cccc(-c2nc3ccccc3[nH]2)c1", "=", 3.24),
    ("Nc1cnc2ccccc2c1", ">", 10000),
]
